- Experiment: Evalaution of pharmacokinetic parameters for Glimepiride following single oral […] of Glimepiride tablets […] to healthy subjects and to patients with type 2 diabetes.
- Format: ADME, organism-based
- Set-up: dose 4 mg, dose 1 mg, dose 2 mg, dose 8 mg, route oral
- Condition Context: human, in vivo, po; dosed compound id 27, dosed compound name GLIMEPIRIDE, gender male and female, regimen Single dose, tissue Plasma; read-out: AUC(0-last)
Recorded Metric: AUC (ng·h/mL)
Field: numeric (ng·h/mL). Do not append units.

Reported AUC, compound CCC1=C(C)CN(C(=O)NCCc2ccc(S(=O)(=O)NC(=O)N[C@H]3CC[C@H](C)CC3)cc2)C1=O [GLIMEPIRIDE] : ____ 339
